assay-target: SARS-CoV-2 3CLpro (Severe acute respiratory syndrome coronavirus 2)
method-description: biochemical
Type: biochemical
test-parameters: 4 h, sheet LOPAC_screen_w_protease; primary screen with protease, compound at 5 µM; mean of two replicates; read-out: mean
Counter-ions that a name gives are not always drawn.
Label Y when inhibition at 5 µM >= 3%; otherwise N.

CC1=C(C(=O)O)N2C(=O)[C@@H](NC(=O)[C@H](N)C3=CCC=CC3)[C@H]2SC1
Y

# bool: inhibition at 5 µM of O=c1[nH]c2ccccc2n1C1CCN(CCCC(c2ccc(F)cc2)c2ccc(F)cc2)CC1 [Pimozide] >= 3% N

Reported inhibition at 5 µM at or above 3%? OC[C@H]1NC[C@H](O)[C@@H](O)[C@@H]1O [1-Deoxynojirimycin hydrochloride] N

Record CSC(N)=NCCC[C@H](N)C(=O)O [S-Methyl-L-thiocitrulline acetate] ; criterion: inhibition at 5 µM no lower than 3%. Met? N

###

assay-target: SARS-CoV-2 3CLpro (Severe acute respiratory syndrome coronavirus 2)
method-description: biochemical
Assay type: biochemical
test-parameters: 4 h, read-out: Replicate_1 (LOPAC_screen_w_protease)
Counter-ions that a name gives are not always drawn.
Reported inhibition at 5 µM is given for each of the following molecules.

# annotated cases, reported inhibition at 5 µM shown
O=C(O)Cc1ccccc1Nc1c(Cl)cccc1Cl [Diclofenac sodium]
3.59%
OC(CCN1CCCCC1)(c1ccccc1)C1CCCCC1 (stereo not drawn) [Trihexyphenidyl hydrochloride]
1.61%
O=c1c(O)c(-c2ccc(O)c(O)c2)oc2cc(O)cc(O)c12 [Quercetin dihydrate]
2.76%

# evaluate next
Query (molecule): NCC1(CC(=O)O)CCCCC1 [Gabapentin] ; field requested: inhibition at 5 µM 3.94%

###

assay-target: SARS-CoV-2 3CLpro (Severe acute respiratory syndrome coronavirus 2, UniProt P0DTD1)
method-description: biochemical
Assay type: biochemical
test-parameters: with 0.01% Triton X-100; read-out: EC50
measurement-name: EC50
Lab note: write values as number then unit, every time.

Here are 3 compounds together with their reported answers.
O=C(O)c1cc[c]([Hg][Cl])cc1 [4-Chloromercuribenzoic acid, reference compound]
85 nM
Cc1ccc(S(=O)(=O)N[C@@H](Cc2ccccc2)C(=O)CCl)cc1
1740 nM
N=C1Sc2ccccc2C2=NCCCN12 [PD 404,182, reference compound]
81 nM

Which EC50 value belongs to Cc1ccc(S(=O)(=O)N[C@@H](CCCCN)C(=O)CCl)cc1 ? 10600 nM

For the compound O=C(N[C@@H](Cc1ccccc1)C(=O)CCl)OCc1ccccc1 , what EC50 is on record? 230 nM

###

The entries below come with measured Replicate_2 values attached.
assay-target: SARS-CoV-2 3CLpro (Severe acute respiratory syndrome coronavirus 2)
method-description: biochemical
Type: biochemical
Parameters: unit not given here
test-parameters: sheet LOPAC_screen_w_protease; primary screen with protease, compound at 5 µM; replicate 2

Solved cases below.
NC(=O)NO [Hydroxyurea]
0.6922
COc1ccccc1N1CCN(CCN(C(=O)c2ccc(I)cc2)c2ccccn2)CC1.Cl [p-MPPI hydrochloride]
1.05
[N-]=[N+]=Nc1ccc(C(=O)CSC[C@H](NC(=O)CC[C@H](N)C(=O)O)C(=O)NCC(=O)O)cc1
2.621

Find the recorded Replicate_2 belonging to CC12NC(Cc3ccccc31)c1ccccc12.O=C(O)/C=C\C(=O)O (single isomer, unassigned; (+)) [(+)-MK-801 hydrogen maleate] and report it. 0.4685

###

assay-target: SARS-CoV-2 3CLpro (Severe acute respiratory syndrome coronavirus 2, UniProt P0DTD1)
method-description: biochemical
Format: biochemical
test-parameters: 4 h, sheet LOPAC_screen_w_protease; primary screen with protease, replicate 1; read-out: Replicate_1
Structures can show the parent of a compound that is named as a salt.
measurement-name: inhibition at 5 µM (%)
The reply should contain only the number, in %.

Study these solved cases before continuing.
COc1ccc2c(c1)c(CC(=O)N1CCOCC1)c(C)n2C(=O)c1ccc(Cl)cc1 [Indomethacin morpholinylamide]
2.02
N=C(N)c1ccccc1 [Benzamidine hydrochloride]
1.49
c1ccc2c(c1)CCCC2C1=NCCN1 (stereo not shown) [Tetrahydrozoline hydrochloride]
1.87
CN(C)C(=O)C(CCN1CCC(O)(c2ccc(Cl)cc2)CC1)(c1ccccc1)c1ccccc1 [Loperamide hydrochloride]
4.2
CCCCCCC(C)(C)c1ccc([C@@H]2C[C@H](O)CC[C@H]2CCCO)c(O)c1
1.74

Record request: inhibition at 5 µM value, item CNC(=O)[C@H]1O[C@@H](n2cnc3c(NCc4cccc(I)c4)ncnc32)[C@H](O)[C@@H]1O 2.72

State the recorded inhibition at 5 µM for this entry: NS(=O)(=O)c1cc2c(cc1Cl)NCNS2(=O)=O [Hydrochlorothiazide] 3.63

###

assay-target: SARS-CoV-2 3CLpro (Severe acute respiratory syndrome coronavirus 2, UniProt P0DTD1)
method-description: biochemical
Assay type: biochemical
Set-up: unit not given here
test-parameters: sheet LOPAC_screen_w_protease; LOPAC1280 at 5 µM; replicate 1
Lab note - cut at 2 for Replicate_1: T if strictly below, F if not.

Sample answers from the record:
NC(CCP(=O)(O)O)C(=O)O (racemic) [(±)-2-Amino-4-phosphonobutyric acid]
F
Cl.OCc1c[nH]cn1 [4-Imidazolemethanol hydrochloride]
F
Cl.NC1(C(=O)O)CC1
F
O=C(O)CCC(C(=O)O)N1C(=O)c2ccccc2C1=O (stereo not shown)
T

Here is another molecule to look at.
Confirm or reject: Replicate_1 of C[N+](C)(C)CCCCCCCCCC[N+](C)(C)C.[Br-].[Br-] [Decamethonium dibromide] lies strictly below 2 F

###

Reported Replicate_1 values are given for each entry in this list.
assay-target: SARS-CoV-2 3CLpro (Severe acute respiratory syndrome coronavirus 2)
method-description: biochemical
Type: biochemical
Set-up: unit not given here
test-parameters: sheet LOPAC_screen_w_protease; primary screen with protease, 5 µM; replicate 1

Worked set:
Cl.Fc1ccc(CN(C2=NCCN2)c2c(Cl)cccc2Cl)cc1 [IMID-4F hydrochloride]
-0.8698
CC(C)(C)NC[C@H](O)COc1nsnc1N1CCOCC1.O=C(O)/C=C\C(=O)O [S(-)-Timolol maleate]
1.756
CC(=O)OCC1=C(C(=O)[O-])N2C(=O)[C@@H](NC(=O)CCC[C@@H](N)C(=O)[O-])[C@H]2SC1.[Zn+2] [Cephalosporin C zinc salt]
0.7755
O=C([O-])CCC(NC(=O)c1ccccc1C(=O)[O-])C(=O)[O-].[Na+].[Na+].[Na+] [Phthalamoyl-L-glutamic acid trisodium]
0.8142
O=c1ccn([C@@H]2O[C@H](COP(=O)([O-])OP(=O)([O-])O)[C@@H](O)[C@H]2O)c(=O)[nH]1.[Na+].[Na+] [Uridine 5'-diphosphate sodium]
-1.155

Hi! What's the reported Replicate_1 for Cc1cccc(/C=C/c2ccccc2)n1 on SARS-CoV-2 3CLpro (Severe acute respiratory syndrome coronavirus 2)? 2.242

Entry COc1cc(CC(=O)O)ccc1O [4-Hydroxy-3-methoxyphenylacetic acid] , system SARS-CoV-2 3CLpro (Severe acute respiratory syndrome coronavirus 2): what Replicate_1 was measured? 3.737

What value of Replicate_1 on SARS-CoV-2 3CLpro (Severe acute respiratory syndrome coronavirus 2) does C=C(C)[C@H]1CC=C(C(=O)O)CC1 [(-)-Perillic acid] have? 1.127

Lab note: need Replicate_1 for FC(F)(F)c1ccccc1-n1ccnc1 [1-[2-(Trifluoromethyl)phenyl]imidazole] on SARS-CoV-2 3CLpro (Severe acute respiratory syndrome coronavirus 2), anyone have it? 0.8297

###

assay-target: UniProt P0DTD1
method-description: biochemical
Assay type: biochemical
test-parameters: 4 h, sheet LOPAC_screen_w_protease; primary screen with protease, 5 µM; replicate 2; read-out: Replicate_2
Counter-ions that a name gives are not always drawn.
Attribute: inhibition at 5 µM
Give a bare numeral; the unit % is implied.

C[N+](C)(C)CCCCCC[N+](C)(C)C [Hexamethonium bromide]
-1.17
C[N+]1(C)[C@@H]2CC[C@H]1C[C@@H](OC(=O)C(CO)c1ccccc1)C2 (some centres unmarked) [Atropine methyl nitrate]
-0.825
Cc1ccc(N(CC2=NCCN2)c2cccc(O)c2)cc1 [Phentolamine mesylate]
0.062

Look at this compound and give its reported inhibition at 5 µM. O=C(O)c1nn(Cc2ccc(Cl)cc2Cl)c2ccccc12 0.0889

Query: inhibition at 5 µM; subject: C[C@@H]1O[C@@H]1P(=O)(O)O [Phosphomycin disodium] -0.485

###

assay-target: SARS-CoV-2 3CLpro (Severe acute respiratory syndrome coronavirus 2, UniProt P0DTD1)
method-description: biochemical
Type: biochemical
test-parameters: 4 h, sheet LOPAC_screen_w_protease; LOPAC1280 primary screen at 5 µM, with protease; replicate 1; read-out: Replicate_1
Where a name gives a salt, the structure may show the parent alone.
measurement-name: inhibition at 5 µM
Record the result as number plus unit.

// below: answered molecules
CCCCCCCCCCCCCCSCC(=O)O [Tetradecylthioacetic acid]
-1.66%
CC1(C)NC(=O)N(c2ccc([N+](=O)[O-])c(C(F)(F)F)c2)C1=O [Nilutamide]
2.22%
CC(C)NCC(O)COc1cccc2[nH]ccc12 (stereo not shown) [Pindolol]
0.309%
N=C(N)NCCC[C@H](N)C(=O)O [L-Arginine]
3.1%
O=C(c1ccc(F)cc1)C1CCN(CCn2c(=O)[nH]c3ccccc3c2=O)CC1 [Ketanserin tartrate]
1.01%

Now take the following molecule into account.
Name the reported inhibition at 5 µM value associated with the molecule CCOC(=O)N1CCC(=C2c3ccc(Cl)cc3CCc3cccnc32)CC1 [Loratadine] -0.189%
